Values from PubChem BioAssay AID686979

Assay: qHTS for Inhibitors of human tyrosyl-DNA phosphodiesterase 1 (TDP1): qHTS in cells in presence of CPT; further: nearly all actives have a fitted effect of over 55% in size; further: potency means the concentration at half of the fitted maximal effect
Settings: chicken DT40 Tdp1-/-;hTDP1 cells + 20 nM CPT, ATP luminescence, 48 h; series mostly up to 46.2 µM
The whole screen tested about 420,000 compounds, of which about 50,000 (12%) were called active. Roughly 26% stayed inconclusive and do not appear here. Shown is part of a subset that was picked to be rich in actives.
MEASURED_PROPERTY: Potency

Please report the recorded Potency for "Cc1ccc(-n2nc(C)c(C(=O)O)c2-n2cccc2)cc1" .
inactive

Record request: Potency value, item "COCCNc1ncnc2c1nc1n2CCCC1"
inactive

Potency lookup needed for "CN(C(=O)C1CCN(c2ncnc3c2nc2n3CCCCC2)CC1)C1CCCCC1" , thanks.
20.6 µM (active)

Entry under review: "O=C(NCc1ccco1)/C(=C/c1ccco1)NC(=O)c1ccccc1" . Reported Potency?
inactive

Entry under review: "CC(C)CC(=O)NC(=S)Nc1ccc(F)cc1F" . Reported Potency?
inactive

Bench note: what Potency did CC(C)(C)SCCSC1=CC(=O)CC(c2ccccc2)C1 (configuration not stated) show?
inactive

Returns the measured Potency for the input compound. Input: "CCCCN(CC)C(=S)Nc1ccc2nc3n(c(=O)c2c1)CCCCC3"
inactive

Quick one: Potency for "CCCc1c2oc(C(=O)O)cc(=O)c2cc2c(=O)cc(C(=O)O)n(CC)c12" ?
inactive

Further cases:
What measured Potency goes with "O=C(COC(=O)c1cccc(Cl)c1)NC(=O)NCc1ccccc1" ?
inactive

// lookup Potency for "Cc1cccc2c(=O)n3c(nc12)CCCCC3"
inactive

What value of Potency has been reported for the following compound? CCCN(CCC)C(=O)C1CCCN(c2ncnc3c2nc2n3CCCCC2)C1 (configuration not stated)
14.6 µM (active)

What value of measured Potency is listed for "Cc1cc(C)n(-c2c(F)c(F)c(COC(=O)c3ccccc3)c(F)c2F)n1" ?
inactive

* * *

Test: qHTS for Inhibitors of human tyrosyl-DNA phosphodiesterase 1 (TDP1): qHTS in cells in presence of CPT; further: nearly all actives have a fitted effect of over 55% in size
Conditions: chicken DT40 Tdp1-/-;hTDP1 cells + 20 nM CPT, ATP luminescence, 48 h; series mostly up to 46.2 µM
Screen size: about 420,000 compounds; about 50,000 (12%) were called active. Roughly 26% stayed inconclusive and do not appear here. The call rests on the fitted dose curve; in most records, active means well fitted inhibition curve with a large enough effect; inconclusive means small, poorly fitted or top-dose-only effect; inactive means flat fitted curve, though single readings scatter. The entries come from a sample that favours actives as a whole.
Pick one and only one: Y (active), N (inactive)

Write down the call the test reported for this compound. Item: "Cc1ccc(-n2nnnc2CNC(=O)c2ccccc2C)cc1C"
N

Please state the recorded outcome for this compound: "C[C@H](CO)N1C[C@H](C)[C@H](CN(C)C(=O)Nc2ccc3c(c2)OCO3)Oc2ncc(Br)cc2C1=O"
N

Dear colleague, could you share the recorded outcome for "O=c1[nH]cnc(O)c1C(c1ccc(F)cc1)c1c(O)nc[nH]c1=O" when you have a moment?
N

Fill in: this test's call for "CC(=O)c1cc(-c2ccccc2)[nH]c1N1CCCC1" is ___
Y

I'd appreciate the recorded outcome for CC(Oc1cccc(Cl)c1)C(=O)NC1CC(C)(C)NC(C)(C)C1 (stereo not given) from this test.
N

* * *

Test: qHTS for Inhibitors of human tyrosyl-DNA phosphodiesterase 1 (TDP1): qHTS in cells in presence of CPT; further: nearly all actives have a fitted effect of over 55% in size
Conditions: chicken DT40 Tdp1-/-;hTDP1 cells + 20 nM CPT, ATP luminescence, 48 h; series mostly up to 46.2 µM
Among all 420,000 compounds or so, about 50,000 (12%) were called active. Not shown: some 26% with an inconclusive outcome. Calls come from the whole dose curve; as a rule, active = well fitted inhibition curve with a large enough effect; inconclusive = small, poorly fitted or top-dose-only effect; inactive = flat fitted curve, though single readings scatter. The entries come from a sample that favours actives as a whole.
// classify into yes (1) (active), no (0) (inactive)

Status in this test for "Cc1ccc(C(=O)NNc2ncnc3ccccc23)cc1" ?
no (0)

// return assay outcome for "CCOc1ccc(-n2c(SCC(=O)NCc3ccccc3)nc3n[nH]c(C)c3c2=N)cc1"
yes (1)

Hi team, can someone confirm the assay call for "Brc1nc2ncnc(NCc3ccco3)c2[nH]1" ?
no (0)

How did this test come out for "COc1ccc(C(=O)CN(C(=O)c2ccc(Cl)cc2)N2C(=O)c3ccccc3C2=O)cc1" ?
no (0)

Field: outcome | Entry: "CCOC(=O)c1oc2c(CN3CCN(C)CC3)c(O)ccc2c(=O)c1-c1ccc(Br)cc1"
no (0)

What classification did "COc1ccc(Cn2c(=O)oc3ccccc32)cc1" end up with in this test?
no (0)

Given "CN(c1ccccc1)c1nc(N)c([N+](=O)[O-])c(NCc2ccco2)n1" , state the outcome it received in this test.
no (0)

Per the assay record, what outcome was assigned to "Cc1ccccc1Nc1nc(N)nc(COC(=O)CCC(=O)c2ccc(F)cc2)n1" ?
no (0)

Called result for "CCCCNC(=O)CSc1nccn1Cc1ccccc1"
no (0)

Can you look up the reported call for "CCOc1ccc(-n2c(SCC(=O)Nc3cc(C(=O)O)ccc3Cl)nc3ccccc3c2=O)cc1" for me?
no (0)

Short answer needed: outcome of this test for "c1ccc(-c2nc(NCc3ccco3)c3ccccc3n2)cc1" ?
yes (1)

Assay result, entry CN(C)c1ccc(C(CNS(=O)(=O)c2cc(F)ccc2F)N2CCOCC2)cc1 (configuration not stated) — outcome?
no (0)

What is the recorded call for this compound in the test? "O=C(COC(=O)c1ccc([N+](=O)[O-])cc1Cl)NC(=O)c1ccccc1"
no (0)

GET /call?item= "Cc1nnc(SCC(=O)NCCOc2ccc(Cl)cc2)n1-c1ccccc1" returns the recorded outcome of this test.
no (0)

Field: outcome | Entry: "CO[C@H]1O[C@@H]2O[C@@]3(C)CC[C@@H]4[C@@H](C)CC[C@@H]([C@H]1C)[C@@]24OO3"
yes (1)

Please let me know the test result on file for "Cc1ccc(-n2c(SCC(=O)NCCC3=CCCCC3)nc3n[nH]c(C)c3c2=N)cc1Cl" .
yes (1)

Please indicate how the test categorized CC(=O)NC(CC(=O)Nc1nccs1)c1ccccc1 (configuration not stated) .
no (0)

Outcome logged for "Cc1nnc(OCC(=O)NCCC2=CCCCC2)c2ccccc12" in this assay:
no (0)

Fill in: this test's call for "CS(=O)(=O)n1nc(-c2ccccc2)nc1NCc1ccco1" is ___
no (0)

Each compound tested received a call. Report the one for "O=C(NCc1ccncc1)c1cccc(NS(=O)(=O)c2ccc(F)c(F)c2)c1" .
no (0)

Which outcome was assigned to "CCOc1n[nH]c(-c2ccccc2)n1" in this test?
no (0)

Please share the test call associated with "CCOC(=O)N1CCN(C(=O)c2ccc(S(=O)(=O)Nc3cccc(C(F)(F)F)c3)cc2)CC1" .
yes (1)
